Measured koff accompanies every entry in the list below.
- Assayed System: T1, human insulin-like growth factor binding protein 4 (IBP4) (human, UniProt P22692 22-258)
- T1 construct: also called IBP4 protein; IGFBP4
- T1 sequence: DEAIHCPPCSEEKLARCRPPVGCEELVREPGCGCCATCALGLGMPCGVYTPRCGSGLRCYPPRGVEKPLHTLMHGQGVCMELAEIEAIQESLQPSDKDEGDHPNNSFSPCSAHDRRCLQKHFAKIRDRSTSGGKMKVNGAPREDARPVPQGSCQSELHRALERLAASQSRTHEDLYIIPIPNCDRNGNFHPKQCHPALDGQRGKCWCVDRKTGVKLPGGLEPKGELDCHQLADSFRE
- Experiment Description: SPR, format and IBP4 form not stated
Record the value in s⁻¹, omitting the unit from your answer.

Binder	Unit Name	koff
anti-IBP4 antibody 3D4.E9 (antibody, mouse IgG2b, kappa, V domains shown, Mouse hybridoma mAb raised against FL IBP4; also called IBP4-3D4.E9) VH: QVQLQQSGAELVRPGASVTLSCKASGYTFTDYEMHWVKQTPVHGLEWIGAIDPETGGAAYNQKFKGKAILTADKSSSTAYMELRSLTSEDSAVYYCTRARGSSSVYYFDYWGQGTTLTVSS VL: DIVMTQSQKFMSTSVGDRVSVTCKASQNVGTNVAWYQQKPGQSPKALIYSTSYRYSGVPDRFTGSRSGTDFILTISNVQSEDLAEYFCQQYDSYPLTFGSGTKLEIKR	s⁻¹	0.00221
anti-IBP4 antibody 5C11.A7 (antibody, mouse IgG1, kappa, V domains shown, Mouse hybridoma mAb raised against FL IBP4; also called IBP4-5C11.A7) VH: QVQLQQSGAELVRPGASVTLSCKASGYTFTDYEMHWVRQTPVHGLEWIGAIDTETGGPAYNQKFKGKAILTADKSSSTAYMELRSLTSEDSAVYFCTRARGSRSVYYFDNWGQGTTLTVSS VL: DIVMTQSQKFMSTSVGDRVSVTCKASQNVGTNVAWYQQKPGHSPKVLIYSASYRHSGVPDRFTGSGSGTDFTLTIGNVQSEDLADYFCQQYDTYPLTFGSGTKLEIKR	s⁻¹	0.00074
anti-IBP4 antibody 7G11.H4 (antibody, mouse IgG1, kappa, V domains shown, Mouse hybridoma mAb raised against FL IBP4; also called IBP4-7G11.H4) VH: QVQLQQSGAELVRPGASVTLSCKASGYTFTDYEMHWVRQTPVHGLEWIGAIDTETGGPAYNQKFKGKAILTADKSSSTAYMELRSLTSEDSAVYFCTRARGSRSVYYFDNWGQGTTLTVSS VL: DIVMTQSQKFMSTSVGDRVSVTCKASQNVDTNIAWYQQKPGHSPKALIYSASYRYSGVPDRFTGSGSGTDFTLTIGNVQSEDLADYFCQQYDTYPLTFGSGTKLEIKR	s⁻¹	0.00102

Okay, next one:
Ask: Please give the measured koff for this binder: anti-IBP4 antibody 1H9.B6 (antibody, mouse IgG1, kappa, V domains shown, Mouse hybridoma mAb raised against FL IBP4; also called IBP4-1H9.B6) VH: EVQLQQSGPELVKPGASVKISCKTSGYTFTDYYMNWVKQSHGKSLEWIGDINPNNGGAGYNQKFKGKATLTVDKSSSTAYMELRSLTSEDSAVYYCARWGWDRYFDYWGQGTTLTVSS VL: DIVMTQSQKFMSTSVGDRVSVTCKASQNVGIDVAWYQQKPGQSPKALIYSASYRSSGVPDRFTGSGSGTDFTLTINNVQSEDLAEYFCQQYNSYPLAFGSGTKLEIKR
Result: 0.0009
